Molecular target: SpsB (Staphylococcus aureus signal peptidase) (Staphylococcus aureus)
Construct: This assay uses a suspension of Staphylococcus aureus cells as a source of SpsB instead of recombinant SpsB protein; endogenous in cells; host or cells: S. aureus, USA300 background, overexpressing SpsB (whole-cell suspension from frozen pellets)
Sequence (P0A070 whole entry): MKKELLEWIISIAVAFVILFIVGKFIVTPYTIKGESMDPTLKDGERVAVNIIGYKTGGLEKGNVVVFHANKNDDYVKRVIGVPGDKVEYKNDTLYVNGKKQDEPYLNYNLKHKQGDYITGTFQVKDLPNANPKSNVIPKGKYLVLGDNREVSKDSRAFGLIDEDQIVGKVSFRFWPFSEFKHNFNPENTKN
Assay: cell-based
Type: biochemical
Conditions: SpsB IC50, whole-cell S. aureus (USA300 background, overexpressing SpsB) as SpsB source; fluorogenic peptide substrate, kinetic read 30 min
readout type: IC50 (nM)
Give the value in nM but do not write nM after it.

Past entries and their recorded results:
# smi, readout value
rows = [
    ("CCCCCCCCCC(=O)NCCC(=O)N(C)[C@@H]1C(=O)N[C@@H](C)C(=O)N[C@H](C(=O)NCC#N)Cc2ccc(OCCN)c(c2)-c2cc1ccc2OCCN", 6),
    ("CC(C)Cc1cnc(-c2ccc(C(=O)N[C@@H](CCN)C(=O)N(C)[C@@H]3C(=O)N[C@@H](C)C(=O)N[C@H](C(=O)NCC#N)Cc4ccc(OCCN)c(c4)-c4cc3ccc4OCCN)c3ccccc23)nc1", 3.2),
    ("CCCCCCCCc1cnc(C(=O)N[C@@H](CCN)C(=O)N(C)[C@@H]2C(=O)N[C@@H](C)C(=O)N[C@H](C(=O)NCC#N)Cc3ccc(OCCN)c(c3)-c3cc2ccc3OCCN)c(C)c1", 0.74),
]

Ask: For the compound CCCCCCCCCCCCCC(=O)N[C@@H](CN)C(=O)N(C)[C@@H]1C(=O)N[C@@H](C)C(=O)N[C@H](C(=O)N[C@@H](C)C#N)Cc2ccc(OCCN)c(c2)-c2cc1ccc2OCCN , what IC50 is on record?
Reply: 1.3

Ask: For the compound Cc1cc(-c2ccccc2)ccc1C(=O)N[C@@H](CCN)C(=O)N(C)[C@@H]1C(=O)N[C@@H](C)C(=O)N[C@H](C(=O)NCC#N)Cc2ccc(OCCN)c(c2)-c2cc1ccc2OCCN , what IC50 is on record?
Reply: 0.8

Ask: For the compound C[C@@H]1NC(=O)[C@@H](N(C)C(=O)[C@H](CCCCN)NC(=O)c2ccccc2-c2ccc(Cl)cc2)c2ccc(OCCN)c(c2)-c2cc(ccc2OCCN)C[C@@H](C(=O)NCC#N)NC1=O , what IC50 is on record?
Reply: 6.1

Ask: For the compound CCCCCCCC(=O)c1ccc(C(=O)N[C@@H](CCN)C(=O)N(C)[C@@H]2C(=O)N[C@@H](C)C(=O)N[C@H](C(=O)NCC#N)Cc3ccc(OCCN)c(c3)-c3cc2ccc3OCCN)c(Cl)c1 , what IC50 is on record?
Reply: 0.88

Ask: For the compound CC(C)Cc1ccc(-c2ccc(C(=O)N[C@@H](CCN)C(=O)N(C)[C@@H]3C(=O)N[C@@H](C)C(=O)N[C@H](C(=O)NCC#N)Cc4ccc(OCCN)c(c4)-c4cc3ccc4OCCN)c(C(F)F)c2)cc1 , what IC50 is on record?
Reply: 1

Ask: For the compound CCCCOc1ccc(C(=O)N[C@@H](CCN)C(=O)N(C)[C@@H]2C(=O)N[C@@H](C)C(=O)N[C@H](C(=O)NCC#N)Cc3ccc(OCCN)c(c3)-c3cc2ccc3OCCN)c(Cl)c1 , what IC50 is on record?
Reply: 1.2

Ask: For the compound C[C@@H]1NC(=O)[C@@H](N(C)C(=O)[C@H](CCN)NC(=O)c2ccc(C#Cc3ccccc3)cc2)c2ccc(OCCN)c(c2)-c2cc(ccc2OCCN)C[C@@H](C(=O)NCC#N)NC1=O , what IC50 is on record?
Reply: 1
